Each entry below carries its recorded pEC50.
# tested on: T1, human Trop-2-His (human, UniProt P09758 27-274, limits assumed)
# T1 construct: by analogy with the macaque construct it is probably the extracellular domain with a His tag; also called Trop-2-His protein
# T1 sequence: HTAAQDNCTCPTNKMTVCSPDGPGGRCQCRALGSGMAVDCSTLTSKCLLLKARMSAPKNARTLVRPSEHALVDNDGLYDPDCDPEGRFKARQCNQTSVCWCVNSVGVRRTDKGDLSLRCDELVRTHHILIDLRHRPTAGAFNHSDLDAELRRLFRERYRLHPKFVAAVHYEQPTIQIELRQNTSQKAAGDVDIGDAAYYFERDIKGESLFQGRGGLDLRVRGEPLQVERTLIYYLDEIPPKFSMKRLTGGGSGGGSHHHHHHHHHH
# measurement protocol: ELISA, plate-coated human Trop-2-His
Quick note: pEC50 values are minus log10 of concentrations in mol/L.

{"binder": "hz-Ab21-2.2 (antibody, human IgG1, kappa, V domains shown, Humanized antibody) VH: EVQLVESGGGLVKPGGSLRLSCAASGFTLRNYGVHWVRQAPGKGLEWVGVIWSSGTTDYNAAFISRFTISKDNSKNTLYLQMNSLKTEDTAVYYCTRDGDYDYYTMDYWGQGTLVTVSS VL: EIVLTQSPATLSLSPGERATLSCRASKSVSTSAYSYIHWYQQKPGQPPRLLIYLTSNLESGIPARFSGSGSGTDFTLTISSLEPEDFAVYYCQHSRELPYTFGQGTKVEIKR", "observed": 9.65}

For hz-Ab2-1.4 (antibody, human IgG1, kappa, V domains shown, Humanized antibody) VH: QVQLQESGPGLVKPSETLSLTCTVSGFSLTYYGIDWIRQPPGKGLEWIGVIWGSGNTKYNSALKSRVTISKDNSKSQVYLKLSSVTAADTAVYYCARFYEGFAYWGQGTLVTVSS VL: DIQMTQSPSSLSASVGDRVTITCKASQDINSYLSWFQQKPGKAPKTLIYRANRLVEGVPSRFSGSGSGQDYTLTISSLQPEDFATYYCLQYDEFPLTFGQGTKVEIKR , what is its reported pEC50?
10.17

For TINA (antibody, INN chains, looked up, V domains shown) VH: QVQLVQSGAEVKKPGASVKVSCKASGYTFTTAGMQWVRQAPGQGLEWMGWINTHSGVPKYAEDFKGRVTISADTSTSTAYLQLSSLKSEDTAVYYCARSGFGSSYWYFDVWGQGTLVTVSS VL: DIQMTQSPSSLSASVGDRVTITCKASQDVSTAVAWYQQKPGKAPKLLIYSASYRYTGVPSRFSGSGSGTDFTLTISSLQPEDFAVYYCQQHYITPLTFGQGTKLEIK , what is its reported pEC50?
10.08

For hz-Ab2-2.1 (antibody, human IgG1, kappa, V domains shown, Humanized antibody) VH: EVQLVESGGGLIQPGGSLRLSCAVSGFSLTYYGIDWVRQPPGKGLEWVSVIWGSGNTKYNSALKSRLTISRDNSKSTLYLQMNSLRAEDTAVYYCARFYEGFAYWGQGTLVTVSS VL: DIQMTQSPSSLSASVGDRVTITCRASQDINSYLSWFQQKPGKAPKTLIYRANRLVEGVPSRFSGSGSGQDFTLTISSLQPEDFATYYCLQYDEYPLTFGQGTKVEIKR , what is its reported pEC50?
8.97

For hz-Ab35-2.3 (antibody, human IgG1, kappa, V domains shown, Humanized antibody) VH: QVQLVQSGAEVKKPGASVKVSCKASGYTFTSSDINWVRQRPGQGLEWMGWIYPRDGSKKYNEKFKGRVTMTVDTSTSTVYMELSSLRSEDTAVYYCATRFATVVSNYGLDPWGQGTLVTVSS VL: EIVLTQSPATLSLSPGERATLSCSASSSVNYIYWYQRKPGQAPRLLIYDTSNLASGIPARFSGSGSGTDYTLTISSLEPEDFAVYYCQQWNSYPLTFGQGTKVEIKR , what is its reported pEC50?
10.19
